test system: HT-29; test: In vitro cytotoxicity (SRB), percentage growth inhibition, HT-29; assay type: cell-based, human; conditions: HT-29 (colon), 10^−5 mol/L, 48 hours
// percentage growth inhibition HT-29 lookup, one value per entry

- structure.string: "COc1cc2c(cc1OCCCCN1CCN(CCCCN3C(=O)c4cccc5cccc(c45)C3=O)CC1)N=C[C@@H]1CCCN1C2=O"
  percentage growth inhibition HT-29, %: 78
- structure.string: "COc1cc2c(cc1OCCCN1CCN(CCN3C(=O)c4cccc5cccc(c45)C3=O)CC1)N=C[C@@H]1CCCN1C2=O"
  percentage growth inhibition HT-29, %: 85
- structure.string: "COc1cc2c(cc1OCCCCN1CCN(CCN3C(=O)c4cccc5cccc(c45)C3=O)CC1)N=C[C@@H]1CCCN1C2=O"
  percentage growth inhibition HT-29, %: 86
- structure.string: "COc1cc2c(cc1OCCCN1CCN(CCCN3C(=O)c4cccc5cccc(c45)C3=O)CC1)N=C[C@@H]1CCCN1C2=O"
  percentage growth inhibition HT-29, %: 62
